Target: CYP1A2 (Homo sapiens)
Sequence (P05177 1-516): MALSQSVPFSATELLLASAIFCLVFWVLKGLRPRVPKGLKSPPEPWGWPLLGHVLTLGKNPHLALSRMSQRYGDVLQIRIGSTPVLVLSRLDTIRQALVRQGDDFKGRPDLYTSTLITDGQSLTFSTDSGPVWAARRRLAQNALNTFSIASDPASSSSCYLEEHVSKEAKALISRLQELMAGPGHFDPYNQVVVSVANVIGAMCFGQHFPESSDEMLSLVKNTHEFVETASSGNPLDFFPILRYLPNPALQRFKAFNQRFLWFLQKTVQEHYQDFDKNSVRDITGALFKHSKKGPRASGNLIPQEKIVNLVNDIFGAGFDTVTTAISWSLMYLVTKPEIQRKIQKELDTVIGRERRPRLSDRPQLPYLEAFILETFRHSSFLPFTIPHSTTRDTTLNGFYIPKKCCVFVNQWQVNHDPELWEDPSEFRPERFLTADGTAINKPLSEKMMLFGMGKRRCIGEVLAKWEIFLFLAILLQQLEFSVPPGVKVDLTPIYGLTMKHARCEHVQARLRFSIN
pIC50: −log10 of the molar value.
MEASURED_ENDPOINT: pIC50

The compound C[C@@H](c1ccccc1-c1ccc(F)cc1)n1cncc1C(=O)N1CCn2c(nnc2C2CC2)C1 on CYP1A2 (Homo sapiens): pIC50 was < 5.00

Bench note, CYP1A2 (Homo sapiens): entry C[C@@H](c1ccccc1-c1ccc(F)cc1)n1cncc1C(=O)N1CCCC(N2CCC(C)(O)CC2)CC1 (single isomer, unassigned) [Compound 3b] , its pIC50 = < 5.00

Measured pIC50 (CYP1A2 (Homo sapiens)), entry CO[C@H]1CN(C2CCN(C(=O)c3cncn3[C@@H](C)c3ccccc3-c3ccc(F)cc3)CC2)C[C@@H]1O : < 5.00

Sourced from patent US9981969B2
